Listed here: items and their measured MOR α ± SEM (efficacy, intrinsic activity).
# TARGET: human MOR (Homo sapiens, UniProt P35372)
# Construct: expressed in transfected cells; host or cells: CHO cells (gift from Prof. Girolamo Calo, Ferrara University)
# Sequence (P35372 whole entry): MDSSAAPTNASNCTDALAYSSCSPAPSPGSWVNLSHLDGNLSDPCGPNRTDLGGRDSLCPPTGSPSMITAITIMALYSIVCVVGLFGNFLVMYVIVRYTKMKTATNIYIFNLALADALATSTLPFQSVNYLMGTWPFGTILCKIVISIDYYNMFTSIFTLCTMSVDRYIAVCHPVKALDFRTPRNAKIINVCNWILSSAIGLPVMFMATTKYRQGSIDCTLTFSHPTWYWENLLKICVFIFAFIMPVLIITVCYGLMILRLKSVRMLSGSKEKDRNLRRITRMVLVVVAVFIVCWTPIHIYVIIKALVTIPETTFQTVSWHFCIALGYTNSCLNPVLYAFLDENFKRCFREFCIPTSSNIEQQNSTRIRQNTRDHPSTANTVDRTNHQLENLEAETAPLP
# TEST_NAME: Calcium mobilization assay, agonist mode, MOR
# Type: cell-based
# ASSAY_CONTEXT: CHO cells co-expressing human MOR and Gαqi5; ratio of peptide Emax to Emax of dermorphin; inactive = inactive up to 10 μM; n ≥ 5
Bridge positions count the residues as written; N and C are the ends. Square brackets hold non-standard residues; d marks the D form. Peptide text beside a SMILES is read from it. d2Nal = N[C@H](Cc1ccc2ccccc2c1)C(=O)O; Dmt = Cc1cc(O)cc(C)c1C[C@H](N)C(=O)O; Tic = O=C(O)[C@@H]1Cc2ccccc2CN1
READOUT_NAME: MOR α ± SEM (efficacy, intrinsic activity)

INSERT INTO measurements (molecule, quantitative_readout) VALUES
  ('C[C@@H](NC(=O)[C@@H](N)Cc1ccc(O)cc1)C(=O)N[C@@H](Cc1ccccc1)C(=O)NCC(=O)N[C@@H](Cc1ccc(O)cc1)C(=O)N1CCC[C@H]1C(=O)N[C@@H](CO)C(N)=O [dermorphin, reference compound]', 1.00),
  ('Cc1cc(O)cc(C)c1C[C@H](N)C(=O)N1Cc2ccccc2C[C@H]1C(=O)N[C@@H]1CCCCNC(=O)C[C@@H](C(N)=O)NC(=O)[C@H](Cc2ccccc2)NC(=O)[C@H](Cc2ccccc2)NC1=O [compound 1, Dmt-Tic-c[D-Lys-Phe-Phe-Asp]NH2] (H-[Dmt][Tic][dK]FFD-NH2; lactam 3-6)', 0.15),
  ('Cc1cc(O)cc(C)c1C[C@H](N)C(=O)N1Cc2ccccc2C[C@H]1C(=O)N[C@@H]1CCCCNC(=O)C[C@@H](C(N)=O)NC(=O)[C@@H](Cc2ccc3ccccc3c2)NC(=O)[C@H](Cc2ccccc2)NC1=O [compound 2, Dmt-Tic-c[D-Lys-Phe-D-2Nal-Asp]NH2] (H-[Dmt][Tic][dK]F[d2Nal]D-NH2; lactam 3-6)', 0.37),
  ('Cc1cc(O)cc(C)c1C[C@H](N)C(=O)N1Cc2ccccc2C[C@H]1C(=O)N[C@@H]1CCCCNC(=O)C[C@@H](C(N)=O)NC(=O)[C@H](Cc2ccccc2)NC1=O [compound 5, Dmt-Tic-c[D-Lys-Phe-Asp]NH2] (H-[Dmt][Tic][dK]FD-NH2; lactam 3-5)', 0.3),
  ('Cc1cc(O)cc(C)c1C[C@H](NC(=O)[C@@H]1Cc2ccccc2CN1C(=O)[C@@H]1CC(=O)NCCCC[C@@H](NC(=O)[C@@H]2Cc3ccccc3CN2C(=O)[C@@H](N)Cc2c(C)cc(O)cc2C)C(=O)N[C@@H](Cc2ccccc2)C(=O)N1)C(N)=O [compound 6, Dmt-Tic-c[D-Lys-Phe-Asp]-Tic-Dmt-NH2] (H-[Dmt][Tic][dK]FD[Tic][Dmt]-NH2; lactam 3-5)', 0.17);
